Test system: UACC-62 melanoma
Test: NCI-60 one-dose screen, 48 h (100 = growth as untreated, 0 = no growth, -100 = all killed)
Settings: 10 µM unless noted
About 83,000 compounds went through this panel and 20% of them were active in at least one assay; those are over-represented in the sample as a whole. Active and inactive are the calls of the source. Rule for the calls: active = growth percent below 10; inactive = the rest.

# compound, assay system, growth
records = [
    ("Clc1ccc(/C=C/c2nc(N3CCOCC3)c3nc(Cl)c(Cl)cc3n2)cc1", "UACC-62 melanoma", "106% (inactive)"),
    ("COc1cc(/C=C/C(=O)c2ccccc2O)ccc1OCCCOc1cc2c(cc1OC)C(=O)N1CCC[C@H]1C=N2", "UACC-62 melanoma", "-82.4% (active)"),
    ("CCC(c1ccc(OC)cc1)C(CC)c1ccc(O)c(CN2CCCC2)c1 (stereo not given)", "UACC-62 melanoma", "-74.1% (active)"),
    ("COc1ccc(/C(=N/O)c2cc(OC)c(OC)c(OC)c2)c(OC)c1N", "UACC-62 melanoma", "31.7% (inactive)"),
    ("CN1C(=O)[C@H]2c3c1cccc3[C@@]13NC(=O)O[C@H]1[C@H](CCC3(C)C)C2(C)C", "UACC-62 melanoma", "85.4% (inactive)"),
    ("Clc1ccc2c(c1)NC1(CCSc3ccccc31)n1nccc1-2 (stereo not given)", "UACC-62 melanoma", "94.7% (inactive)"),
    ("CN(C)c1ccc(-c2ccc(-c3ccc(C(=N)N)cn3)o2)cc1", "UACC-62 melanoma", "-97.9% (active)"),
    ("COc1ccc(/C=C2\\CCCC3=C2NC(C)=NC3c2ccc(OC)c(OC)c2)cc1OC (stereo not given)", "UACC-62 melanoma", "10.9% (inactive)"),
    ("O=C(N/N=C/c1c(Cl)cccc1Cl)c1ccccc1Nc1ccnc(C(F)(F)F)c1", "UACC-62 melanoma", "55.6% (inactive)"),
    ("COC12CC(=O)C(C(C)=O)=C(O)C1(C)c1c(O)c(C)c(O)c(C(C)=O)c1O2 (stereo not given)", "UACC-62 melanoma", "40.6% (inactive)"),
]
